Form field: GI50 (one value per entry).
Tested on: CAKI-1
METHOD SUMMARY: Anticancer activity against human Caki1 cells after 48 hrs by SRB assay
Format: functional
CONDITION CONTEXT: CAKI-1, 48 h
The reply should be a number in µM, with the unit left off.

Some solved cases for reference:
COMPOUND: O=C(NCCNc1nccc(-c2c(-c3cccc(O)c3)nc3sccn23)n1)c1ccccc1
READOUT VALUE: 5.92

COMPOUND: COc1cccc(-c2nc3sccn3c2-c2ccnc(NCCNC(=O)Nc3cccc(C(F)(F)F)c3)n2)c1
READOUT VALUE: 3.5

COMPOUND: O=C(NCCNc1nccc(-c2c(-c3cccc(O)c3)nc3sccn23)n1)c1ccccc1O
READOUT VALUE: 3.71

# context switch: different molecule, same GI50
Q: Given the entry "O=C(NCCNc1nccc(-c2c(-c3cccc(O)c3)nc3sccn23)n1)Nc1cccc(C(F)(F)F)c1" , what GI50 was observed with CAKI-1?
Ans: 14.2
